Test protocol: Degree of acid/ester substitution [A] from Saponification Number
Assay type: physicochemical
Assay context: Saponification Number (Pharmaceutical Excipients 2000) divided by 56.11
Metric name: [A] degree of acid/ester substitution

CCCCCCCCCCCCCCCCCC(=O)O [stearic acid, octadecanoic acid]: 3.6-3.9 meq/g carrier
CCCCCCCCCCCCCCCCO [cetyl alcohol]: <0.04 meq/g carrier
CCCCCCCC/C=C\CCCCCCCC(=O)OCC(O)CO (centres unmarked) [glyceryl monooleate]: 2.9-3.0 meq/g carrier
CCCCCCCCCCCCCCCCCCO [stearyl alcohol, 1-octadecanol]: <0.04 meq/g carrier
CCCCCCCCCCCCCCCCCC(=O)OCC(O)CO (centres unmarked) [glyceryl monostearate]: 2.8-2.9 meq/g carrier
